Measured TGI values are reported for all entries that follow.
tested on: K-562 leukemia; assay: NCI tumour cell line growth inhibition, 48 h

Answered cases to consult:
>  <Compound>
Cc1nn(-c2ccccc2)c(C)c1/C=N/NC(=O)c1sc(=S)n(-c2ccccc2)c1N

>  <Value Reported>
> 100 µM

$$$$
>  <Compound>
Cc1c2ncccc2c(C)c2c1[nH]c1ccccc12

>  <Value Reported>
41.7 µM

$$$$
>  <Compound>
CC1(C)C(=O)/C(=C\c2ccco2)C[C@]2(C)[C@H]3CC=C4[C@@H]5C[C@](C)(C(=O)O)CC[C@]5(C)CC[C@@]4(C)[C@]3(C)CC[C@@H]12

>  <Value Reported>
93 µM

$$$$
>  <Compound>
c1c[nH]c(Cc2ncc(Cc3cnc[nH]3)[nH]2)n1

>  <Value Reported>
> 100 µM

$$$$

Okay, now this compound:
What value of measured TGI is listed for COc1cccc(/C=C/C2=NN(c3cccc(S(=O)(=O)O)c3)C3(C2)SCC(=O)N3c2nc3ccccc3s2)c1 (stereo not given) ?
> 100 µM

* * *

tested on: DU-145 prostate; assay: NCI tumour cell line growth inhibition, 48 h
Kindly return rule met if reported TGI is no lower than 20 µM; return rule not met if it is lower.

Worked examples follow.
>  <Molecule>
C=C1C(O)C2C(=C(CC(C)C)C13CC3)C(=O)C(C)(C)C2OC (stereo not given)

>  <Target Under Test>
DU-145 prostate

>  <Label Value>
rule met

$$$$
>  <Molecule>
CC1(C)C2CCC1C(=O)C(C=O)C2 (stereo not given)

>  <Target Under Test>
DU-145 prostate

>  <Label Value>
rule met

$$$$
>  <Molecule>
COC(=O)c1ccc2c(c1)c1c(C)c3cnccc3c(C)c1n2C

>  <Target Under Test>
DU-145 prostate

>  <Label Value>
rule not met

$$$$

// inclusive: TGI at least 20 µM? input: "CCOC(=O)/C(=C\c1ccc(CO)o1)P(=O)(OCC)OCC"
rule met

Threshold query (TGI >= 20 µM) on "NNC(=O)c1ccccc1NC(=O)/C(=C/c1ccccc1)NC(=O)c1ccccc1"
rule met

I'd appreciate it if you could say whether "CN(C)Cc1cc(N=Nc2ccc(Cl)c(Cl)c2)ccc1O" has TGI at least equal to 20 µM.
rule not met

Please tell me: is the molecule "Cn1c(N/N=C/c2ccc(Cl)cc2)nc(-c2ccc(Cl)cc2)c(C#N)c1=O" at or over 20 µM in terms of TGI?
rule met

# bool: TGI of CCCCS(=N)(=O)CC[C@H](N)C(=O)O (stereo not given in full) >= 20 µM
rule met

* * *

test system: UACC-257 melanoma; experiment: NCI tumour cell line growth inhibition, 48 h
Quantity Kind: TGI

Field request: TGI | item: COc1cccc2c1C1=CC(=O)CCC1C(C)(C)O2 (stereo not drawn)
> 100 µM

Record request: TGI value, item "CC(C)n1c(=O)c2nn3c(=O)n(C(C)C)c(=O)c3nn2c1=O"
> 100 µM

Given "Cc1nn(-c2ccccc2)c(C)c1/C=N/NC(=O)c1sc(=S)n(-c2ccccc2)c1N" , state its recorded TGI.
> 100 µM

* * *

Endpoint: GI50. System: NCI-H226 lung. Items follow.

For orientation, consider the following solved cases.
>  <Compound>
CCCCS(=N)(=O)CC[C@H](N)C(=O)O (stereo partly specified)

>  <Target Under Test>
NCI-H226 lung

>  <Value Reported>
> 10000 µM

$$$$
>  <Compound>
CCOC(=O)/C=C/c1ccc(C(=O)OCC)[nH]1

>  <Target Under Test>
NCI-H226 lung

>  <Value Reported>
15.4 µM

$$$$

// map "Cc1ccc(S(=O)(=O)NCCN2c3nc4ccccc4cc3Sc3cc4ccccc4nc32)cc1" to recorded GI50 (system: NCI-H226 lung)
64.2 µM

Given the entry "Cc1ccc(-c2cc3nc(-c4ccccc4)nc(C(Cl)Cl)n3n2)cc1" , what GI50 was observed with NCI-H226 lung?
> 50 µM

Form entry - test system: NCI-H226 lung; read-out: GI50; compound: "CC(C)(C)C([O-])=C1C(=O)c2ccccc2C1=O.CC(C)(C)C([O-])=C1C(=O)c2ccccc2C1=O.CC[O-].CC[O-].[Ti+4]"
56.7 µM

NCI-H226 lung / GI50 / "CCCCc1cc(O)ccc1O" : value?
48.8 µM

* * *

system: IGROV1 ovarian; test: NCI tumour cell line growth inhibition, 48 h
Quantity Kind: TGI (µM)
Unit µM implied. Number only.

Use the examples below as a reference point.
>  <Compound>
CCN(CC)CC(C)Nc1ccc(C)c2sc3ccccc3c(=O)c12 (configuration not stated)

>  <Target Under Test>
IGROV1 ovarian

>  <TGI, µM>
17.1

$$$$
>  <Compound>
CCN(CC)C(=S)SSC1CCCCC1

>  <Target Under Test>
IGROV1 ovarian

>  <TGI, µM>
38.4

$$$$

For "CN(C)CCNc1cccc2sc3ccc(O)cc3c(=O)c12" , what is its reported TGI?
12.5

* * *

Listed molecules paired with reported GI50
test system: MALME-3M melanoma

>  <Molecule>
COC(=O)c1ccc2c(c1)c1c(C)c3cnccc3c(C)c1n2C

>  <GI50>
61.5 nM

$$$$
>  <Molecule>
CCOC(=O)/C=C/c1ccc(C(=O)OCC)[nH]1

>  <GI50>
2890 nM

$$$$
>  <Molecule>
Nc1ccc2c(c1)[O][Sn]([c]1ccccc1)([c]1ccccc1)[O]C2=O

>  <GI50>
3180 nM

$$$$
>  <Molecule>
CC1(C)C(=O)/C(=C\c2ccco2)C[C@]2(C)[C@H]3CC=C4[C@@H]5C[C@](C)(C(=O)O)CC[C@]5(C)CC[C@@]4(C)[C@]3(C)CC[C@@H]12

>  <GI50>
12700 nM

$$$$
>  <Molecule>
Cn1nnnc1[N-]Cc1ccccc1.[Au+].c1ccc([PH+](c2ccccc2)c2ccccc2)cc1

>  <GI50>
1640 nM

$$$$
>  <Molecule>
O=[N+]([O-])/C=C\c1ccc2c(c1)OCO2

>  <GI50>
14600 nM

$$$$
>  <Molecule>
CCN(CC)CC(C)Nc1ccc(C)c2sc3ccccc3c(=O)c12 (stereo not given)

>  <GI50>
2450 nM

$$$$
>  <Molecule>
[Cl][Sn]([c]1ccccc1)[c]1ccccc1

>  <GI50>
2190 nM

$$$$

Record "CCN(CC)C(=S)SSC1CCCCC1" : what is its GI50 with MALME-3M melanoma?
20800 nM

Give MALME-3M melanoma GI50 for "Cc1ccc2c(c1)sc(-c1ccc(N(C)C)cc1)[n+]2C"
1380 nM

* * *

test system: HOP-92 NSCLC
Respond using exactly one of the listed classes: true (1) for active, false (0) for inactive

// below: answered compounds
>  <Compound>
N#CC1C(N)=NNC1c1ccc(-c2ccc(-c3nc4ccccc4o3)cc2)o1 (centres undefined)

>  <Label Value>
false (0)

$$$$
>  <Compound>
CC1=CC[C@@H]2C(C)(C)[C@@H](O)CC[C@@]2(C)[C@@H]1COc1ccc2ccc(=O)oc2c1

>  <Label Value>
false (0)

$$$$
>  <Compound>
O=C(/C=C/c1ccc([N+](=O)[O-])o1)NNC(=O)c1cc2ccccc2cc1O

>  <Label Value>
false (0)

$$$$

Please look at the following compound next.
Each compound tested received a call. Report the one for "ClCCn1cnc2c(SCc3ccccc3)ncnc21" .
false (0)

* * *

system: SF-539 CNS; experiment: NCI tumour cell line growth inhibition, 48 h
The following molecules are shown together with reported TGI values.
Field format: number, assumed µM, no unit text.

>  <Molecule>
CCOC(=O)/C=C/c1ccc(C(=O)OCC)[nH]1

>  <Quantity Kind>
TGI

>  <Value Reported>
42.5

$$$$
>  <Molecule>
CCn1c2c(c3c(C(=O)OC)c(O)ccc31)C(=O)c1ccccc1C2=O

>  <Quantity Kind>
TGI

>  <Value Reported>
36

$$$$
>  <Molecule>
CCOC(=O)c1sc2c(C(=O)OCC)n3ccccc3c2c1N

>  <Quantity Kind>
TGI

>  <Value Reported>
75.4

$$$$
>  <Molecule>
CCC(=O)N1C/C(=C/c2ccc(OC)cc2)C(=O)/C(=C/c2ccc(OC)cc2)C1

>  <Quantity Kind>
TGI

>  <Value Reported>
3.1

$$$$
>  <Molecule>
COc1ccc(-c2cn3c(n2)sc2cc(C)ccc23)cc1

>  <Quantity Kind>
TGI

>  <Value Reported>
33.7

$$$$

TGI for CC1=C(N2CC2)C(=O)c2nc3n(c2C1=O)CCC3O (stereo unspecified) ?
0.669

Which TGI is listed for "C=C1C(=O)O[C@H]2[C@H]1CC/C(COC(=O)c1ccc(C(=O)O)s1)=C\CC[C@@]1(C)O[C@@H]21" ?
3.04

What value of TGI has been recorded for this entry: COc1cccc(C2c3cc4c(cc3OC(N3CCOCC3)C2C)OCO4)c1O (stereo unspecified)
9.66
